- STUDY_SYSTEM: recombinant human 5-HT1A (Homo sapiens)
- Construct: expressed in transfected cells; host or cells: CHO
- Sequence (P08908 whole entry): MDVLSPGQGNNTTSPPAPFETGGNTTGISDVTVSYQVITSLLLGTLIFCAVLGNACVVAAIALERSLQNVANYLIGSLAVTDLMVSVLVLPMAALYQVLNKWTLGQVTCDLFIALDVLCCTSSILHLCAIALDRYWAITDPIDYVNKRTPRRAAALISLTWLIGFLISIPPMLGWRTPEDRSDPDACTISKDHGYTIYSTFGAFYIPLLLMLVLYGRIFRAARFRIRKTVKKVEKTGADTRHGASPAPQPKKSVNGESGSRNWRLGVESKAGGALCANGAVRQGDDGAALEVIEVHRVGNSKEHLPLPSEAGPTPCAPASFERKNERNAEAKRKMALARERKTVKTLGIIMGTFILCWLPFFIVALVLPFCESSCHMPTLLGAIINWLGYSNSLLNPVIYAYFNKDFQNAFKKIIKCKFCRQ
- ASSAY: radioligand binding to serotonin receptor 5-HT1A ([3H] 8-OH-DPAT)
- RUN_PARAMETERS: ligand concentration 1 μM
# maps each entry to its inhibition at 1 µM
Hi, when you answer, please include the unit after the number. Thanks!

Illustrative cases are given below, each with its answer.
COMPOUND: Cc1ccc2c(c1)c1c(n2CCc2ccncc2)CCCN(C)C1
inhibition at 1 µM: 13%
--
COMPOUND: Cc1ccc2c(c1)c1c(n2CCc2ccccn2)CCCN(C)C1
inhibition at 1 µM: 28%
--
COMPOUND: Cc1ccc2c(c1)[C@H]1CN(C)CCC[C@@H]1N2CCc1ccc(C)nc1 (relative stereo)
inhibition at 1 µM: 55%

Ask: Given Cc1ccc(CCn2c3c(c4cc(F)ccc42)CN(C)CCC3)cn1 [1.2.2(4-2)•2HCl] , state its recorded inhibition at 1 µM.
Reply: 31%

Ask: Endpoint output: inhibition at 1 µM of Cc1ccc2c(c1)c1c(n2CCc2cccnc2)CCCN(C)C1.Cl.Cl [1.2.2(3-2)•2HCl] . Value?
Reply: 6%

Ask: Quick one: inhibition at 1 µM for Cc1ccc2c(c1)c1c(n2CCc2ccccn2)CCN(C)C1.Cl.Cl [1.1.2(2-3)•2HCl] ?
Reply: 53%

----------
Parameter 'readout' = Ki; parameter 'system' = human H1 receptor (Homo sapiens, UniProt P35367).
Sequence (P35367 whole entry): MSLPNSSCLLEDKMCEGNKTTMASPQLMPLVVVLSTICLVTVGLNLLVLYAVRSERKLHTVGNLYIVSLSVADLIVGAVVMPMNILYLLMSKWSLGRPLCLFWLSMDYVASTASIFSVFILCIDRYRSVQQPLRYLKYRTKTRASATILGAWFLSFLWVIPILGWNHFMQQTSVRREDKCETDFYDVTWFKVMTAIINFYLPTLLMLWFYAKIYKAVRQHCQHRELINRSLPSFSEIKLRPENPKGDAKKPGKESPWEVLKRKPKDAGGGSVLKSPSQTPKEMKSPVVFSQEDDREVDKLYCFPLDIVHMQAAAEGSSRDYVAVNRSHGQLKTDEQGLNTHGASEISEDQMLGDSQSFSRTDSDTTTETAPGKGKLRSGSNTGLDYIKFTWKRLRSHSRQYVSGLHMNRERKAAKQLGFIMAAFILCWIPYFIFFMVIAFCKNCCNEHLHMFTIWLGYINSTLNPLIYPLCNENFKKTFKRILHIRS
# unit: nM | format: bare number

COMPOUND: CN1CCc2c(c3ccccc3n2Cc2ccccc2)C1
SCALE_UNIT: nM
Ki: 1.9

Ask: What Ki value was documented for this compound, Cc1ccc2c(c1)c1c(n2CCc2ccc(C)nc2)CCN(C)C1.Cl.Cl [1.1.2(4-2)•2HCl] ?
Reply: 1.6

----------
- STUDY_SYSTEM: human α1D receptor (Homo sapiens, UniProt P25100)
- Construct: expressed in transfected cells; host or cells: HEK-293
- Sequence (P25100 whole entry): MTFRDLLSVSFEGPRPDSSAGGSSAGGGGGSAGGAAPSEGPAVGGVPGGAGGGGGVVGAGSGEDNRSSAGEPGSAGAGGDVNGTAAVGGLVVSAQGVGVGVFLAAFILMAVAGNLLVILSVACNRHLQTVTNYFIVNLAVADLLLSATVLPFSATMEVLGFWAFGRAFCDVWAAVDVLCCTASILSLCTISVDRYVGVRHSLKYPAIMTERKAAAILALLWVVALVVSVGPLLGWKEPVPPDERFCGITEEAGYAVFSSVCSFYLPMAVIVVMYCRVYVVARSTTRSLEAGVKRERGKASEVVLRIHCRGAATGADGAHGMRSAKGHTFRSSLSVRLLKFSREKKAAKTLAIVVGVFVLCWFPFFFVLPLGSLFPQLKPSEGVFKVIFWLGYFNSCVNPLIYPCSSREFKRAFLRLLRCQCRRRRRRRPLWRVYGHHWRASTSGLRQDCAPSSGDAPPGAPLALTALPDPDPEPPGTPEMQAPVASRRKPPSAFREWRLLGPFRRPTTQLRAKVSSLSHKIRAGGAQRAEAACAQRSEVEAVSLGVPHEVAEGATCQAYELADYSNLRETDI
- ASSAY: radioligand binding to adrenergic receptor α1D ([3H] Prazosin)
- Source text: 6-C. […] For this purpose sDNA of human α1D receptor is expressed in HEK-293 cells, as it was described in [T L Theroux, T A Esbenshade, R D Peavy and K P Minneman. Coupling efficiencies of human alpha 1-adrenergic receptor subtypes: titration of receptor density and responsiveness with inducible and repressible expression vectors. Mol. Pharmacol.; 50: 1376-1387, 1996]. […] Prazosin is used as positive control.
// reported Ki for each item listed
State the value with its unit after it.

Here's what some known entries look like.
MOLECULE: Cc1ccc2c(c1)c1c(n2CCc2ccc(C)nc2)CCN(C)C1.Cl.Cl [1.1.2(4-2)•2HCl]
STUDY_SYSTEM: human α1D receptor (Homo sapiens, UniProt P25100)
Ki: 118 nM

MOLECULE: Cc1ccc(CCn2c3c(c4cc(C)ccc42)CN(C)CC3)cc1
STUDY_SYSTEM: human α1D receptor (Homo sapiens, UniProt P25100)
Ki: 30.2 nM

MOLECULE: Cc1ccc2c(c1)c1c(n2CCc2ccccn2)CCN(C)C1.Cl.Cl [1.1.2(2-3)•2HCl]
STUDY_SYSTEM: human α1D receptor (Homo sapiens, UniProt P25100)
Ki: 139 nM

Switching to the query record.
Ask: Please look up its Ki: CN1CCc2c(c3ccccc3n2Cc2ccccc2)C1
Reply: 656 nM
